- ASSAY_OVERVIEW: Solubility-increasing effect (UV spectrophotometry, 22 °C, 18 hours stirring)
- REPORTED_CONDITIONS: 2.5% SUMEB vs 2.5% DIMEB solution; * UV maximum shifted (Sensit base)
- Description: Therefore comparative examinations concerning the solubility-increasing effect were performed with model guest-molecules containing a basic group. (The measurements were carried out by UV spectrophotometry at 22° C. after stirring for 18 hours).
Measured SUMEB / DIMEB (ratio of solubilities) values are reported for all entries that follow.

Form field SUMEB / DIMEB (ratio of solubilities), entry CC(Cc1ccccc1)NCCC(c1ccccc1)c1ccccc1 (racemic) : 3.75

Form field SUMEB / DIMEB (ratio of solubilities), entry CC(C)CCC[C@@H](C)[C@H]1CC[C@H]2[C@@H]3CC=C4C[C@@H](O)CC[C@]4(C)[C@H]3CC[C@]12C : 0.37

Form field SUMEB / DIMEB (ratio of solubilities), entry c1ccc(Nc2ccccc2)cc1 : 0.72

Form field SUMEB / DIMEB (ratio of solubilities), entry C[C@@H]([C@H](O)c1ccccc1)N(C)C : 1.2

----------
- ASSAY_OVERVIEW: Solubility-increasing effect (UV spectrophotometry, 22 °C, 18 hours stirring)
- REPORTED_CONDITIONS: 2.5% sumeb solution
Returns one of label 1 or label 0; label 1 when solubility at 18 h is >= 8000 µg/mL.

MOLECULE	DISCRETE_LABEL
CC(NCCC(c1ccccc1)c1ccccc1)c1ccccc1 (racemic)	label 1
CC(Cc1ccccc1)NCCC(c1ccccc1)c1ccccc1 (racemic)	label 0
C[C@@H]([C@H](O)c1ccccc1)N(C)C	label 1
CC(C)CCC[C@@H](C)[C@H]1CC[C@H]2[C@@H]3CC=C4C[C@@H](O)CC[C@]4(C)[C@H]3CC[C@]12C	label 0

*Q* hey, is solubility at 18 h for this one >= 8000 µg/mL? c1ccc(Nc2ccccc2)cc1
*A* label 0

----------
Measured log10(solubility at 18 h) values are reported for all entries that follow.
- ASSAY_OVERVIEW: physchem
- REPORTED_CONDITIONS: 2.5% dimeb solution
Hello, just confirming the data are log10 of solubility at 18 h with units of µg/mL.

MOLECULE	READOUT_NUMBER
c1ccc(Nc2ccccc2)cc1 [Diphenylamine]	2.72
CC(Cc1ccccc1)NCCC(c1ccccc1)c1ccccc1 (racemic) [± Prenylamine base, Prenylamine]	3.30
CC(C)CCC[C@@H](C)[C@H]1CC[C@H]2[C@@H]3CC=C4C[C@@H](O)CC[C@]4(C)[C@H]3CC[C@]12C [Cholesterol]	3.23
CC(NCCC(c1ccccc1)c1ccccc1)c1ccccc1 (racemic) [± Sensit base]	3.74

// below: log10(solubility at 18 h) requested for another molecule
Form field log10(solubility at 18 h), entry C[C@@H]([C@H](O)c1ccccc1)N(C)C [- N-Methylephedrine base, N-Methylephedrine] : 4.27
